From: PubChem BioAssay (EPA / NIEHS)

read-out: Nuclear factor NF-kappa-B p105 subunit (Homo sapiens); experiment: LTEA_HepaRG_NFKB1: Life Technologies and Expression Analysis (LTEA) Assay for Nuclear Factor Kappa B Subunit 1 (NFKB1) using HepaRG (AID 2283521); conditions: mRNA level, 48 h; actives raise or lower the signal
Calls of active or inactive are those of the source. Rule for the calls: active = hit-call score of the fitted dose curve at least 0.9, where 1 is the maximum; inactive = score below 0.9.
Outcomes: True for active, False for inactive

{"columns": ["compound", "qualitativeLabel"],
 "data": [
  ["CCC(C)(NC(=O)c1cc(Cl)c(C)c(Cl)c1)C(=O)CCl (stereo not given)", "False"],
  ["CCOC1Oc2ccc(OS(C)(=O)=O)cc2C1(C)C (stereo not given)", "True"],
  ["O=C(O)C(F)(F)C(F)(F)C(F)(F)C(F)(F)C(F)(F)C(F)(F)C(F)(F)F", "False"],
  ["COP(=O)(OC)OC=C(Cl)Cl", "False"],
  ["O=S1OCC2C(CO1)C1(Cl)C(Cl)=C(Cl)C2(Cl)C1(Cl)Cl (stereo not given)", "False"]
]}

###

assay: CCTE_Shafer_MEA_acute_spike_number: CCTE's Neural Acute Assay for Total Number of Spikes, Shafer Lab (AID 2284008);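 for AC50: curve fitted for decrease in spike count so AC50 reflects inhibitors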
Activity calls are given as the source filed them. The calls were made as follows: active = hit-call score of the fitted dose curve at least 0.9, where 1 is the maximum; inactive = score below 0.9.

{"columns": ["compound", "AC50"],
 "data": [
  ["CCCN(CCC)c1c([N+](=O)[O-])cc(C(F)(F)F)cc1[N+](=O)[O-]", "8.55 µM (active)"],
  ["CCC(C)Nc1c([N+](=O)[O-])cc(C(C)(C)C)cc1[N+](=O)[O-] (configuration not stated)", "inactive"],
  ["ClC1C(Cl)C(Cl)C(Cl)C(Cl)C1Cl (configuration not stated)", "20 µM (active)"],
  ["C[C@H]1[C@H](c2ccc(Cl)cc2)SC(=O)N1C(=O)NC1CCCCC1", "13 µM (active)"],
  ["COP(=S)(OC)Oc1ccc(SC)c(C)c1", "7.7 µM (active)"],
  ["Oc1cc(Cl)ccc1Oc1ccc(Cl)cc1Cl", "1.89 µM (active)"],
  ["CNC(=O)/C=C(\\C)OP(=O)(OC)OC", "inactive"],
  ["CCCN(CCOc1c(Cl)cc(Cl)cc1Cl)C(=O)n1ccnc1", "1.26 µM (active)"],
  ["CNC(=O)CSP(=S)(OC)OC", "inactive"],
  ["N#Cc1c(Cl)c(Cl)c(Cl)c(C#N)c1Cl", "inactive"],
  ["N#CN", "inactive"],
  ["Oc1ccc(Cl)cc1Cc1ccccc1", "1.07 µM (active)"]
]}

###

read-out: xenobiotic metabolism (CYP1A1), CYP1A1 (gene 1543); test: CLD_CYP1A1_48hr: CellzDirect (CLD) Gene Expression Assay for xenobiotic metabolism (CYP1A1) at 48 hours (AID 2283705)
Records with an inconclusive call do not appear. Calls of active or inactive are those of the source. The calls were made as follows: active = hit-call score of the fitted dose curve at least 0.9, where 1 is the maximum; inconclusive = response in the unintended direction; inactive = score below 0.9.
Labels: true = active, false = inactive

{"columns": ["compound", "qualitativeLabel"],
 "data": [
  ["COP(=S)(OC)Oc1ccc(SC)c(C)c1", "true"],
  ["CNC(=O)Oc1cccc(N=CN(C)C)c1", "false"],
  ["COP(=S)(OC)Oc1ccc([N+](=O)[O-])cc1", "true"],
  ["CC(C)OC(=O)Nc1cccc(Cl)c1", "true"],
  ["C#CCN1C(=O)COc2cc(F)c(N3C(=O)C4=C(CCCC4)C3=O)cc21", "false"],
  ["CC1(C)C(C=C(Cl)Cl)C1C(=O)OC(C#N)c1ccc(F)c(Oc2ccccc2)c1 (stereo not drawn)", "false"],
  ["CC(C)(C)C(O)C(Oc1ccc(Cl)cc1)n1cncn1 (stereo not drawn)", "true"],
  ["CCC(C)(C)C(=O)OC1=C(c2ccc(Cl)cc2Cl)C(=O)OC12CCCCC2", "false"]
]}
